Hey, just so you know, these numbers are from patent US20240376214A1.

Target: T1, human c-Met (HGFR), full length, on the cell surface (human, UniProt P08581 25-1390)
T1 construct: Endogenous c-Met on human tumor cell lines MKN45, NCI-H596, PC-3 and HepG2; also called hepatocyte growth factor receptor; mesenchymal-epithelial transition factor
T1 sequence (P08581 25-1390 limits assumed): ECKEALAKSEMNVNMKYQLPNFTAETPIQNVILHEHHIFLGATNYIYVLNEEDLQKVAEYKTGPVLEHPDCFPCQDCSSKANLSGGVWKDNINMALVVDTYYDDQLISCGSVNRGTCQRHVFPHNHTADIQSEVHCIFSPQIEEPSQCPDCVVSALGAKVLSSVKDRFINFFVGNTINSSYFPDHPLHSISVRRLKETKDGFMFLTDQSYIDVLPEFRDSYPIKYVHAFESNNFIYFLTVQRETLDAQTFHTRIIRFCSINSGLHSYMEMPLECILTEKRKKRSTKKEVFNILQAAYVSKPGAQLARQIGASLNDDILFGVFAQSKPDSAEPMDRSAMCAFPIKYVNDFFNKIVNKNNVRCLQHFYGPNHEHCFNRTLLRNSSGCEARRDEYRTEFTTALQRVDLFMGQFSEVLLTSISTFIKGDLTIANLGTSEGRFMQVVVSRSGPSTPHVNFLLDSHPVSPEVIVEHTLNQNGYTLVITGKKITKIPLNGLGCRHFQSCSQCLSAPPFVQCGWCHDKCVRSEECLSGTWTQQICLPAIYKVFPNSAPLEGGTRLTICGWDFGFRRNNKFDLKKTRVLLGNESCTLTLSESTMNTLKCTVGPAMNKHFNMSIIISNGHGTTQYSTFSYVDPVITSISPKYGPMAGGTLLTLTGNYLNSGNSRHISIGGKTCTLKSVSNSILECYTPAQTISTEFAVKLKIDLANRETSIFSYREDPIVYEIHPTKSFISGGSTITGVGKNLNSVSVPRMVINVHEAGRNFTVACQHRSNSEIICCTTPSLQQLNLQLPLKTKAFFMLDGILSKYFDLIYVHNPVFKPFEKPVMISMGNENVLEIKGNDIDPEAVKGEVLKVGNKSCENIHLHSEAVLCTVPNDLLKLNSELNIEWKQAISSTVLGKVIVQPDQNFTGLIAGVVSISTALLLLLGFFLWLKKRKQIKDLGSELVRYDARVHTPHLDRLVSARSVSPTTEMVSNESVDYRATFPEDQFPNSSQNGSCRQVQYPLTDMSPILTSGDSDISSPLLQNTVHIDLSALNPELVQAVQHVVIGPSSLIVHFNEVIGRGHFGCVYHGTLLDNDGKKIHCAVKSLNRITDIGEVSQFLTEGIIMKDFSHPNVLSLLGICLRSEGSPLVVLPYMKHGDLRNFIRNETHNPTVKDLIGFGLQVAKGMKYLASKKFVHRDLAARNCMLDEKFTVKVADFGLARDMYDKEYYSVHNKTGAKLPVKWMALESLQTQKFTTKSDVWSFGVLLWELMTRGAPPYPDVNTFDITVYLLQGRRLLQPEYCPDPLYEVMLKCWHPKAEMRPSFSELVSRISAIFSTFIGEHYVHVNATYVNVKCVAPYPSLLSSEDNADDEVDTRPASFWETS
Assay: flow cytometry, MKN45 cells, without HGF
Listing of entries alongside the reported EC50.
Number only, in µg/mL; omit the unit.

Example binders with recorded EC50:
mAb2c (antibody, human IgG1, kappa, V domains shown, Humanized IgG1 kappa, HC-41C, from wt/41C-chi-mAb2; also called humanized HC-41C antibody mAb2c) VH: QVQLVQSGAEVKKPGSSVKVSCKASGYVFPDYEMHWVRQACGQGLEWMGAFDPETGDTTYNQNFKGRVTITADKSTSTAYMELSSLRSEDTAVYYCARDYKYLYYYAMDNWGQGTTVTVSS VL: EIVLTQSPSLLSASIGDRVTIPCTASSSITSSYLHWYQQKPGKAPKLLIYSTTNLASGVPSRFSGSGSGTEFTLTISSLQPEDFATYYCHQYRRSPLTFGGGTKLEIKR	0.11
mAb2b (antibody, human IgG1, kappa, V domains shown, Humanized IgG1 kappa, HC-41C, from wt/41C-chi-mAb2; also called humanized HC-41C antibody mAb2b) VH: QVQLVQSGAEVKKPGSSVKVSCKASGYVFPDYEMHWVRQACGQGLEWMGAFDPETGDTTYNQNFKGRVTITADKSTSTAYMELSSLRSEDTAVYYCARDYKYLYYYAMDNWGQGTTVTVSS VL: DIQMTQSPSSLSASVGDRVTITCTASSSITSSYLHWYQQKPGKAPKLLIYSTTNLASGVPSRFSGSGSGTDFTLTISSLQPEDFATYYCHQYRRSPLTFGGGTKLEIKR	0.14

Now for the binder whose EC50 we want.
Ask: Given the binder mAb3c (antibody, human IgG1, kappa, V domains shown, Humanized IgG1 kappa, HC-41C, from wt/41C-chi-mAb3; also called humanized HC-41C antibody mAb3c) VH: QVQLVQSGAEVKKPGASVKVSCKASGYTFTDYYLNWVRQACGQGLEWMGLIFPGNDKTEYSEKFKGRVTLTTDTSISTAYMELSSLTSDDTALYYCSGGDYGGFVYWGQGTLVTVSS VL: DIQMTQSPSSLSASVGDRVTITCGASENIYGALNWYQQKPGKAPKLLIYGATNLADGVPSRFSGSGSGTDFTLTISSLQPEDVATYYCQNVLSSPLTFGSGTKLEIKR , what is its reported EC50?
Reply: 0.05
